Values were extracted from PubChem BioAssay.

- protocol_description: LAP4-GFP expression modulators in yeast, confirmation, cell-based, cherry picks, flow cytometry, mother/daughter gates (AID 2271)
- condition_context: S. cerevisiae LAP4-GFP strain, 3 h, at 10 µM, 100 means same as DMSO control
Activity calls are given as the source filed them.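 How the source made its calls: active means GFP response above 150% of the DMSO control; inconclusive means fewer than 70 events counted in any yeast strain; inactive means the rest.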
Can you answer with just one of these options? active, inactive

{"columns": ["molecule", "qualitative_label"],
 "data": [
  ["COc1ccc(C2C3=C(CCCC3=O)N(CC(=O)O)C3=C2C(=O)CCC3)cc1Cl", "inactive"],
  ["O=C(NCc1ccccc1)c1nc(S(=O)(=O)Cc2ccccc2)ncc1Cl", "inactive"],
  ["Cc1c(C(=O)Nc2ccccc2)cnn1-c1ccccc1", "inactive"]
]}

Answer briefly: the call reported for CCCc1[nH]nc2c1C1(C(=O)N(C(C)C)c3ccccc31)C(C#N)=C(N)O2 (stereo unspecified) in this assay.
inactive
